pIC50: recorded values
target: KRAS G12D (Homo sapiens, UniProt P01116, C118A/G12D); assay: KRAS G12D Coupled Nucleotide Exchange Assay; settings: GDP-bound KRAS G12D/C118A, 2 hours pre-incubation, SOS-mediated nucleotide exchange, AlphaScreen
Sequence (P01116 1-169 isoform P01116-2 G12D/C118A): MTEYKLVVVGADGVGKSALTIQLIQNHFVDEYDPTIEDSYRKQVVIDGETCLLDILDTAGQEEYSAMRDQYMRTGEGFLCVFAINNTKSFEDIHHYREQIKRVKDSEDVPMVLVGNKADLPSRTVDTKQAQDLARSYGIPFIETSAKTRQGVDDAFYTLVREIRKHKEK
pIC50: −log10 of the molar value.
Quantity Measured: pIC50

molecule="CCc1c(F)ccc2cc(O)cc(-c3ncc4c(N5CC(O)CC6(CC6)C5)nc(OC[C@@]56CCCN5C[C@H](F)C6)nc4c3F)c12 (single isomer, unassigned) [Example 4]" quantity_measured=pIC50 data_value=8.52
molecule="CCc1c(F)ccc2cc(O)cc(-c3ncc4c(N5CCC6(CCCS6(=O)=O)C5)nc(OCC56CCCN5C[C@H](F)C6)nc4c3F)c12 (stereo in doubt)" quantity_measured=pIC50 data_value=7.89
molecule="C#Cc1c(F)ccc2cc(O)cc(-c3ncc4c(N5CCCC6(CCS(=O)(=O)C6)C5)nc(OC[C@@]56CCCN5C[C@H](F)C6)nc4c3F)c12 (single isomer, unassigned)" quantity_measured=pIC50 data_value=8.70
molecule="Oc1cc(Cl)c(C2CC2)c(-c2ncc3c(N4CCCC5(CC(O)C5)C4)nc(OC[C@@]45CCCN4C[C@H](F)C5)nc3c2F)c1 (single isomer, unassigned)" quantity_measured=pIC50 data_value=9.00
molecule="CCc1c(F)ccc2cc(O)cc(-c3ncc4c(N5CCC6(CC(O)C6)C5)nc(OC[C@@]56CCCN5C[C@H](F)C6)nc4c3F)c12 (some centres unmarked)" quantity_measured=pIC50 data_value=7.42

###

biological target: KRAS G12D (Homo sapiens, UniProt P01116, C118A/G12D); experiment: KRAS G12D Coupled Nucleotide Exchange Assay; settings: GDP-bound KRAS G12D/C118A, 2 hours pre-incubation, SOS-mediated nucleotide exchange, AlphaScreen
Each record is given True if its reported IC50 is strictly below 5 nM. Records at or above 5 nM are given False.

compound=CCc1c(F)ccc2cc(O)cc(-c3ncc4c(N5CCCC6(C5)CN(S(C)(=O)=O)C6)nc(OC[C@@]56CCCN5C[C@H](F)C6)nc4c3F)c12 label_class=False
compound=CCc1c(F)ccc2cc(O)cc(-c3ncc4c(N5CCCC6(CNC6)C5)nc(OC[C@@]56CCCN5C[C@H](F)C6)nc4c3F)c12 label_class=False
compound="O=C1NCC2(CCCN(c3nc(OC[C@@]45CCCN4C[C@H](F)C5)nc4c(F)c(-c5cc(O)cc6ccc(F)c(F)c56)ncc34)C2)O1 (single isomer, unassigned)" label_class=True
compound="CCc1c(F)ccc2cc(O)cc(-c3ncc4c(N5CCCC6(CCO6)C5)nc(OC[C@@]56CCCN5C[C@H](F)C6)nc4c3C)c12 (single isomer, unassigned) [Example 61]" label_class=True
compound="CCc1c(F)ccc2cc(O)cc(-c3ncc4c(N5CCCC6(CC(=O)N6C)C5)nc(OC[C@@]56CCCN5C[C@H](F)C6)nc4c3F)c12 (some centres unmarked)" label_class=False
compound="C#Cc1c(F)ccc2cccc(-c3ncc4c(N5CCCC6(CNC(=O)C6)C5)nc(OC[C@@]56CCCN5C[C@H](F)C6)nc4c3F)c12 (some centres unmarked)" label_class=False
compound="C#Cc1c(F)ccc2cc(O)cc(-c3ncc4c(N5CCCC6(CNC(=O)O6)C5)nc(OC[C@@]56CCCN5C[C@H](F)C6)nc4c3F)c12 (single isomer, unassigned)" label_class=True
compound="CCc1c(F)ccc2cc(O)cc(-c3ncc4c(N5CCCC6(CCO6)C5)nc(OC[C@@H]5C[C@@H](F)CN5C)nc4c3F)c12 (single isomer, unassigned)" label_class=True
compound="CCc1c(F)ccc2cc(O)cc(-c3ncc4c(N5CCCC6(C5)CC(C)(O)C6)nc(OC[C@@]56CCCN5C[C@H](F)C6)nc4c3F)c12 (single isomer, unassigned) [Example 57]" label_class=False

###

Measured pIC50, listed per entry.
biological target: KRAS G12D (Homo sapiens, UniProt P01116, C118A/G12D); experiment: KRAS G12D Coupled Nucleotide Exchange Assay; conditions: GDP-bound KRAS G12D/C118A, 2 hours pre-incubation, SOS-mediated nucleotide exchange, AlphaScreen
pIC50: −log10 of the molar value.
Quantity Measured: pIC50

compound=CCc1c(F)ccc2cc(O)cc(-c3ncc4c(N5CCOC6(CCC6)C5)nc(OC[C@@]56CCCN5C[C@H](F)C6)nc4c3F)c12 data_value=7.55
compound="Oc1cc(-c2ncc3c(N4CCCC5(CCO5)C4)nc(OC[C@@]45CCCN4C[C@H](F)C5)nc3c2F)c2c(F)c(F)ccc2c1 (single isomer, unassigned)" data_value=8.70
compound="CCc1c(F)ccc2cc(O)cc(-c3ncc4c(N5CCCC6(COC(=O)O6)C5)nc(OC[C@@]56CCCN5C[C@H](F)C6)nc4c3F)c12 (single isomer, unassigned) [Example 67]" data_value=8.70
compound="CCc1c(F)ccc2cc(O)cc(-c3ncc4c(N5CCCC6(CCNC6=O)C5)nc(OC[C@@]56CCCN5C[C@H](F)C6)nc4c3F)c12 (stereo partly drawn)" data_value=7.62
compound="CCc1c(F)ccc2cccc(-c3ncc4c(N5CCCC6(CNC(=O)C6)C5)nc(OC[C@@]56CCCN5C[C@H](F)C6)nc4c3F)c12 (stereo partly drawn)" data_value=7.80
compound="CCc1c(F)ccc2cc(O)cc(-c3ncc4c(N5CCOCC6(COC6)C5)nc(OCC56CCCN5C[C@H](F)C6)nc4c3F)c12 (stereo in doubt)" data_value=7.30
compound=CCc1c(F)ccc2cc(O)cc(-c3ncc4c(N5CCCC6(COC6)C5)nc(OC[C@@]56CCCN5C[C@H](F)C6)nc4c3F)c12 data_value=8.52
compound="C#Cc1c(F)ccc2cc(O)cc(-c3ncc4c(N5CCCC6(CCO6)C5)nc(OC[C@@]56CCCN5C[C@H](F)C6)nc4c3F)c12 (single isomer, unassigned)" data_value=9.00
compound="Oc1cc(-c2ncc3c(N4CCC[C@]5(CCO5)C4)nc(OC[C@@]45CCCN4C[C@H](F)C5)nc3c2F)c2c(Cl)c(F)ccc2c1 (single isomer, unassigned)" data_value=9.00
compound="CCc1c(F)ccc2cc(O)cc(-c3ncc4c(N5CC(C)(O)CC6(CC6)C5)nc(OC[C@@]56CCCN5C[C@H](F)C6)nc4c3F)c12 (stereo partly drawn)" data_value=8.22
compound=CCc1c(F)ccc2cc(O)cc(-c3ncc4c(N5CCC6(CC5)COC(=O)N6)nc(OC[C@@]56CCCN5C[C@H](F)C6)nc4c3F)c12 data_value=8.30
compound="CCc1c(F)ccc2cc(O)cc(-c3ncc4c(N5CCCC6(CCS(=O)(=O)C6)C5)nc(OC[C@@]56CCCN5C[C@H](F)C6)nc4c3F)c12 (single isomer, unassigned) [Example 35]" data_value=8.52
compound="CCc1c(F)ccc2cc(O)cc(-c3ncc4c(N5CCCC6(CC(=O)N6)C5)nc(OC[C@@]56CCCN5C[C@H](F)C6)nc4c3F)c12 (single isomer, unassigned) [Example 10]" data_value=8.70
compound="CCc1c(F)ccc2cc(O)cc(-c3ncc4c(N5CC(O)CC6(CCC6)C5)nc(OC[C@@]56CCCN5C[C@H](F)C6)nc4c3F)c12 (stereo partly drawn)" data_value=8.40
compound="Oc1cc(Cl)c(C2CC2)c(-c2ncc3c(N4CCCC5(CCO5)C4)nc(OC[C@@]45CCCN4C[C@H](F)C5)nc3c2F)c1 (stereo partly drawn)" data_value=8.70
compound="CCc1c(F)ccc2cc(O)cc(-c3ncc4c(N5CCCC6(CCS(=O)(=O)C6)C5)nc(OC[C@@]56CCCN5C[C@H](F)C6)nc4c3F)c12 (single isomer, unassigned) [Example 34]" data_value=7.92
compound="CCc1c(F)ccc2cc(O)cc(-c3ncc4c(N5CCCC6(CCC6O)C5)nc(OC[C@@]56CCCN5C[C@H](F)C6)nc4c3F)c12 (single isomer, unassigned) [Example 49]" data_value=7.89
compound="CCc1c(F)ccc2cc(O)cc(-c3ncc4c(N5CC(O)CC6(CC6)C5)nc(OC[C@@]56CCCN5C[C@H](F)C6)nc4c3F)c12 (single isomer, unassigned) [Example 3]" data_value=8.70
compound="CCc1c(F)ccc2cc(O)cc(-c3ncc4c(N5CCCC6(CCN6)C5)nc(OC[C@@]56CCCN5C[C@H](F)C6)nc4c3F)c12 (stereo partly drawn)" data_value=7.77
compound="CCc1c(F)ccc2cc(O)cc(-c3ncc4c(N5CCCC6(CCCO6)C5)nc(OC[C@@]56CCCN5C[C@H](F)C6)nc4c3F)c12 (stereo partly drawn)" data_value=8.22
compound="CCc1c(F)ccc2cc(O)cc(-c3ncc4c(N5CCCC6(CCOC6)C5)nc(OC[C@@]56CCCN5C[C@H](F)C6)nc4c3F)c12 (stereo partly drawn)" data_value=7.92
compound="CCc1c(F)ccc2cccc(-c3ncc4c(N5CCCC6(CNC(=O)O6)C5)nc(OC[C@@]56CCCN5C[C@H](F)C6)nc4c3F)c12 (single isomer, unassigned) [Example 64]" data_value=6.89
compound="CCc1c(F)ccc2cc(O)cc(-c3ncc4c(N5CCCC6(CCS(=N)(=O)C6)C5)nc(OC[C@@]56CCCN5C[C@H](F)C6)nc4c3F)c12 (stereo partly drawn)" data_value=8.52
compound="CCc1c(F)ccc2cc(O)cc(-c3ncc4c(N5CCCC6(C5)CC(C)(O)C6)nc(OC[C@@]56CCCN5C[C@H](F)C6)nc4c3F)c12 (single isomer, unassigned) [Example 56]" data_value=8.22
